# Tested on: BTX-modified Na+ channels in GH3 cells
# protocol.description: Whole-cell voltage clamp, voltage-ramp protocol
# Type: cell-based, rat
# experimental.context: voltage ramp, at +50 mV; no external Na+
endpoint.name: IC50

Recorded IC50 of CCOC(=O)c1ccc(N)cc1 , please.
~1.2 mM
